Each entry below carries its recorded z-score.
PROTOCOL_DETAILS: S6 kinase pathway phospho-S6 level changes – cell-based, A549, cytoblot, luminescence, serum-stimulated, primary screen (AID 1158);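 also: serum-stimulated A549 lung adenocarcinoma cells; signal is phosphorylated S6 detected by cytoblot immunostaining with HRP secondary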
CONDITION_NOTES: 5 h, higher = more signal

- COMPOUND: "C=C(C)[C@@H]1CC=C(C(O)C2C=CC3C(=O)NC(=O)C3N2Nc2ccc(Cl)cc2Cl)CC1 (some centres not stated)"
  z-score: -1.02

Return reported z-score; argument: COC(=O)c1c2oc(c1C(=O)OC)C(=O)N[C@@H](C(C)C)Cn1cc(nn1)C1(CCCCC1)NC(=O)N[C@H](CO)CC2 0.223

Given C=CCN1Cc2ccccc2[C@@H]2OC(c3ccc(OCCCO)cc3)=N[C@]2(CCS(=O)(=O)c2ccccc2)C1=O , state its recorded z-score. -0.0454

Which measured z-score value corresponds to CCCCN1CC=CC23O[C@@H]4/C=C\CCCOC(=O)C4[C@H]2C(=O)N(CCCO)[C@@H]3C1=O (some centres not stated) ? -0.207

Which z-score reading was recorded for the compound COc1ccc(C(=O)Nc2ccc(CN3C(=O)[C@]4(O[C@H](CC(=O)N5CCC[C@H]5CO)[C@@H]([Si](C)(C)c5ccc(OC)cc5)[C@@H]4C)c4ccccc43)cc2)cc1 ? 0.424

What value of z-score has been reported for the following compound? COCCOC(=O)N1C(=O)[C@@]2(c3cc(C#CC4(O)CCCCCC4)ccc31)[C@H](c1ccccc1OCCO)N1[C@H](c3ccccc3)[C@H](c3ccccc3)OC(=O)[C@H]1[C@@H]2C(=O)N1CCc2cc(OC)c(OC)cc2C1 0.495

# query: z-score of entry COC(=O)c1c2oc(c1C(=O)OC)C(=O)NC1(CCCCC1)c1cn(nn1)C[C@H](Cc1ccccc1)NC(=O)N[C@H](CO)CC2 0.229

###

Quick list: composite z-score per entry.
TESTED_ON: Concanavalin-A (Canavalia ensiformis)
PROTOCOL_DETAILS: compounds binding concanavalin A lectin – biochemical, small-molecule microarray, Alexa647 label, 635 nm, artefact control for SMM control protein annotation, primary screen (AID 1127);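 also: z combines 667 nm emission intensity with signal-to-noise across three replicate slides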
CONDITION_NOTES: ConA-A647 binding fluorescence, higher = more signal
Respond numerically, and do not add a unit to the figure.

The following compounds have reported results that may help.
- COMPOUND: "CO[C@H]1O[C@H](CO)[C@@H](OC(=O)Nc2ccc(Oc3ccccc3)cc2)[C@H](OC(=O)Nc2ccc3c(c2)OCO3)[C@@H]1OC(=O)Nc1ccc2c(c1)OCO2"
  composite z-score: 1.18
- COMPOUND: "Cc1ccc([C@H]2C(C(=O)O)=CCN2S(=O)(=O)c2ccc(C)cc2)cc1"
  composite z-score: 1.02
- COMPOUND: "O=C1NC(=O)C2C1C=CC(C(O)c1ccc(I)cc1)N2Nc1ccccn1 (stereo unspecified)"
  composite z-score: 0.445

So what's the measured composite z-score for this one? CC(C)(C)OC(=O)CC[C@@]1(C(=O)N2CCCCC2)N=C(c2ccc(OCCCO)cc2)O[C@@H]1c1ccccc1 0.719

Which composite z-score is reported for this compound? C=C(/C(=C/C[C@H](OC(C)=O)c1ccc(OCCO)cc1)c1cc(C(=O)OC)ccc1OC)C(C)C 0.883

###

PROTOCOL_DETAILS: optical density change of DRC41 E. coli – strain DRC41, OD650, 24 h, E. coli filamentation project, primary screen (AID 1093);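 also: MC1000 strain lacking acrAB efflux and sulA so SOS filamentation is blocked; test concentration not given here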
CONDITION_NOTES: E. coli DRC41 growth, higher = more signal, called active from +8 up or from −8 down
Catalogue of z-score readings, one per entry.
Give the figure only, with no unit attached.

- COMPOUND: "CO[C@H]1O[C@H](CO)[C@@H](OC(=O)Nc2ccccc2)[C@@H]2OC(=O)[C@@H](Cc3ccc4ccccc4c3)C/C=C/C[C@H](Cc3ccc4ccccc4c3)C(=O)O[C@@H]12"
  z-score: 2.64
- COMPOUND: "NC(=O)N1C(=O)C2C(C1=O)C1C=C(CCCO)C2C(C2CC2)N1Cc1cc2c(cc1Br)OCO2 (stereo not drawn)"
  z-score: -0.331

Could you now consider this next compound?
Consider the compound shown here: C=CCOC(=O)[C@H]1[C@@H]2C(=O)O[C@@H](c3ccccc3)[C@@H](c3ccccc3)N2[C@@H](c2ccc(OCCOC(=O)[C@H]3C[C@H]4C(=O)N[C@@H](CCCCN(C)C)C(=O)N4[C@H]3c3cccc(OCCO)c3)cc2)[C@]12C(=O)Nc1ccc(I)cc12 What is its recorded z-score? -1.36

###

PROTOCOL_DETAILS: S. pombe growth modifiers, basal conditions – strain 972, OD600, 24 h, no modulator, primary screen (AID 1090);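 also: basal condition with compound alone and no growth modifier present; test concentration not given here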
CONDITION_NOTES: S. pombe 972 growth, higher = more signal, called active from +8 up or from −8 down
PARAMETER: z-score
Please reply with the value in numeric form only.

- COMPOUND: "COC(=O)[C@@]1(Cc2ccc(OC)cc2)[C@H]2c3cc(C(=O)N4CCCC4)n(Cc4nc5ccccc5[nH]4)c3C[C@H]2CN1C(=O)c1ccccc1"
  QUANTITATIVE_READOUT: 0.955

Return reported z-score; argument: CC(C)NC(=O)[C@@H]1c2ccccc2C(=O)N(C(C)C)[C@H]1c1ccc(CO)cc1 0.458

Which z-score is listed for COCCCNC(=O)[C@@]1(CCS(=O)(=O)c2ccccc2)N=C(c2ccc(OCCCO)cc2)O[C@H]1c1ccccc1N=[N+]=[N-] ? 0.431

Reported z-score, compound C=CC[C@@]1(C(=O)N2CCCCC2)N=C(c2ccc(OCCCO)cc2)O[C@@H]1c1ccccc1N=[N+]=[N-] : ____ -0.577

###

PROTOCOL_DETAILS: probe aDKK1 binding to arrayed compounds – biochemical, biotinylated probe, 635/667 nm fluorescence, primary screen (AID 1099);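 also: score merges 667nm spot fluorescence with signal to noise across triplicate slides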
CONDITION_NOTES: small-molecule microarray, higher = more signal
If the reported composite z-score equals or exceeds 0.4, assign t. If not, assign f.

Example entries begin here.
- MOLECULE: "COc1cc2c(cc1O)C=[N+](Cc1cc3c(cc1Br)OCO3)CC2"
  CLASS_LABEL: "f"
- MOLECULE: "COc1ccc(C(O)C2C=CC3C(=O)N(C)C(=O)C3N2N(c2ccccc2)c2ccccc2)c2ccccc12 (configuration not stated)"
  CLASS_LABEL: "t"
- MOLECULE: "C=CC[C@]12N=C(c3ccc(OCCCO)cc3)O[C@H]1c1ccccc1N(CCS(=O)(=O)c1ccccc1)C2=O"
  CLASS_LABEL: "t"
- MOLECULE: "C#CCN1[C@H](/C=C/C2CC2)[C@H](Cc2ccccc2)OC(=O)[C@@H]1Cc1ccccc1"
  CLASS_LABEL: "f"
- MOLECULE: "O=C(NCc1ccccc1)[C@@H]1c2ccccc2C(=O)N(C2Cc3ccccc3C2)[C@H]1c1ccc(CO)cc1"
  CLASS_LABEL: "t"

Determine whether measured composite z-score meets or exceeds 0.4 for C=CCOC(=O)[C@H]1[C@@H]2C(=O)O[C@@H](c3ccccc3)[C@@H](c3ccccc3)N2[C@@H](c2ccc(OCCOC(=O)[C@@H]3C[C@@H]4C(=O)N5CCC[C@H]5C(=O)N4[C@@H]3c3cccc(OCCO)c3)cc2)[C@]12C(=O)Nc1ccc(I)cc12 f

Check if composite z-score >= 0.4 (inclusive). Item: C=C[C@H](C)[C@@H](OC(=O)Nc1ccc(SC)cc1)c1ccc(O)c2ccccc12 f

###

Catalogue of compounds with associated composite z-score
Tested on: Human papillomavirus type 1a E7 protein (residues 1-88)
PROTOCOL_DETAILS: HPV1a E7 small-molecule binders, primary screen, biochemical, small-molecule microarray, residues 1-88, 635 nm (AID 1129)
CONDITION_NOTES: small-molecule microarray binding, fluorescence 635 nm; higher = more signal
I'd appreciate a reply containing only the number, no unit.

Guide cases for composite z-score, answers given:
- COMPOUND: "COc1ccccc1CN1C(=O)c2ccccc2[C@@H](C(=O)NCc2ccccc2)[C@@H]1c1ccc(CO)cc1"
  TESTED_ON: "Human papillomavirus type 1a E7 protein (residues 1-88)"
  QUANTITATIVE_READOUT: 0.464
- COMPOUND: "COCCCNC(=O)[C@@]1(CCS(=O)(=O)c2ccccc2)N=C(c2ccc(OCCCO)cc2)O[C@H]1c1ccccc1N=[N+]=[N-]"
  TESTED_ON: "Human papillomavirus type 1a E7 protein (residues 1-88)"
  QUANTITATIVE_READOUT: 1.25
- COMPOUND: "COc1ccc([C@H]2C[C@H]3C(I)=C[C@@H]2C(=O)[C@]32CO2)cc1"
  TESTED_ON: "Human papillomavirus type 1a E7 protein (residues 1-88)"
  QUANTITATIVE_READOUT: -0.658
- COMPOUND: "C=CCNC(=O)[C@@H]1[C@H]2C(=O)O[C@H](c3ccccc3)[C@H](c3ccccc3)N2[C@H](c2ccc(OCCO)cc2)[C@@]12C(=O)N(C(=O)OCCOC)c1ccc(C#CCNC(N)=O)cc12"
  TESTED_ON: "Human papillomavirus type 1a E7 protein (residues 1-88)"
  QUANTITATIVE_READOUT: 1.17

Form field: composite z-score recorded for COCC(=C=CC[C@@H](O)c1ccc(OCCO)cc1)C[C@@H](O)c1ccccn1 with Human papillomavirus type 1a E7 protein (residues 1-88) (enter value) -0.14

Which measured composite z-score belongs to COC(=O)[C@@]1(Cc2ccc(OC)cc2)[C@H]2c3cc(C(=O)N(C)C)n(Cc4ccc(C(F)(F)F)nc4)c3C[C@H]2CN1C(=O)c1ccccc1 , tested on Human papillomavirus type 1a E7 protein (residues 1-88)? 0.846

// map CCOC(=O)C[C@H]1[C@H](OC(=O)c2ccc(-c3ccccc3)cc2)[C@@H](NC(=O)c2ccccc2)c2cc(OCCCO)ccc2N1C(=O)c1ccc2ccccc2n1 to recorded composite z-score (system: Human papillomavirus type 1a E7 protein (residues 1-88)) 1.06

// map C=C(CCCC)/C(=C/C[C@@H](OC(C)=O)c1ccccc1OCCO)c1cc(C(=O)OC)ccc1OC to recorded composite z-score (system: Human papillomavirus type 1a E7 protein (residues 1-88)) -0.2

API: value(readout=composite z-score, system=Human papillomavirus type 1a E7 protein (residues 1-88)) for record CN1C(=O)C2C=CC(C(O)C=Cc3ccc([N+](=O)[O-])cc3)N(Nc3ccccc3)C2C1=O (centres undefined) 1.24

// map CCOc1ccc(N2C(=O)CSC2c2cccc([N+](=O)[O-])c2)cc1 (centres undefined) to recorded composite z-score (system: Human papillomavirus type 1a E7 protein (residues 1-88)) 0.636

Short answer please: composite z-score, Human papillomavirus type 1a E7 protein (residues 1-88), entry C=CCNC(=O)[C@H]1[C@@H]2C(=O)O[C@@H](c3ccccc3)[C@@H](c3ccccc3)N2[C@@H](c2ccc(OCCO)cc2)[C@]12C(=O)Nc1ccc(C#CCC(C(=O)OC)C(=O)OC)cc12 1.2

Lab note: need composite z-score with Human papillomavirus type 1a E7 protein (residues 1-88) for entry COC(=O)c1c2oc(c1C(=O)OC)C(=O)NC1(CCCCC1)c1cn(nn1)C[C@H](Cc1ccccc1)NC(=O)N[C@H](CO)CC2 , please look it up. 0.494

Recall the recorded composite z-score for C=CCC(OC(C)=O)[C@@H]1[C@@H](N(Cc2ccc(-c3cccc(C(F)(F)F)c3)o2)C(=O)c2cccc3ccccc23)c2cc(OCCCO)ccc2N1C(=O)Cc1ccc2ccccc2c1 (some centres undefined) with Human papillomavirus type 1a E7 protein (residues 1-88) and state it. -0.688

Reported composite z-score for Human papillomavirus type 1a E7 protein (residues 1-88), given COC(=O)[C@@]1(Cc2ccccc2)[C@H]2c3cc(C(=O)N(C)C)n(Cc4ccc(OC)c(OC)c4)c3C[C@H]2CN1C(=O)c1ccccc1 ? 1.27
